# Test system: Inhibin beta A chain (activin A)
# Assay: small molecules binding activin A – biochemical, small-molecule microarray, 635 nm fluorescence scan, primary screen (AID 1107);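 further: mouse activin A protein probed at 4.33 µg/mL on printed slides; score merges bound-protein fluorescence near 667 nm with spot signal-to-noise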
# Run Conditions: INHBA, higher = more signal
Label YES when composite z-score is at or above 0.3; anything below gets NO.

I'd appreciate it if you could say whether O=C1OCCC=C[C@H]2OC34C=CCN(Cn5nnc6ccccc65)C(=O)[C@H]3N(CCCO)C(=O)[C@@H]4C12 (some centres not stated) has composite z-score at least equal to 0.3.
NO

Can you check `CN(C)C(=O)[C@@]1(Cc2ccccc2)N=C(c2ccc(OCCCO)cc2)O[C@H]1c1ccccc1` next?
NO

Ok, now `COc1ccc([Si](C)(C)[C@@H]2[C@@H](CCO)O[C@]3(C(=O)N(Cc4cccc(NC(=O)[C@H](C)O)c4)c4ccccc43)[C@H]2C)cc1`
NO

Next:
Given the entry `COc1ccccc1CN1C(=O)c2ccccc2[C@](Cc2ccccc2I)(C(=O)O)[C@@H]1c1ccc(CO)cc1` , answer whether its composite z-score meets or surpasses 0.3.
YES

Next record, please: `C=C[C@@H](OC)[C@H](OC(=O)Nc1ccc(OC)cc1)c1ccc(O)c(F)c1`
YES

# iterate: `CCOC(=O)C[C@H]1[C@H](OC(=O)c2cc3ccccc3oc2=O)[C@@H](NC(=O)c2ccc3ccccc3n2)c2cc(OCCCO)ccc2N1C(=O)Cc1ccc(OC)cc1`
NO

// next record `[N-]=[N+]=Nc1ccccc1[C@@H]1OC(c2ccc(OCCCO)cc2)=N[C@]1(Cc1ccccc1)C(=O)O`
YES

---

Please go through the items and note down their z-score.
# Assay: ATP-based viability of Huh7 replicon cells – cell-based, CellTiter-Glo luminescence, basal, 48 h, cytotoxicity control for HCV replication inhibitor project, primary screen (AID 1143);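 further: Huh7 hepatoma cells carrying a hepatitis C replication reporter with no stimulus; test concentration not given here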
# Run Conditions: higher = more signal, called active from +8 up or from −8 down
Give bare numbers.

# get_value(readout='z-score', item= `COc1cccc(C)c1NC(=O)O[C@H]1[C@H](OC(=O)Nc2ccc3c(c2)OCO3)[C@@H](OC(=O)Nc2ccc3c(c2)OCO3)[C@@H](OC)O[C@@H]1CO` )
-1.19

Please give the result for `COCCOC(=O)N1C(=O)[C@@]2(c3cc(C#CC4(O)CCCCCC4)ccc31)[C@H](C(=O)N1CCc3cc(OC)c(OC)cc3C1)[C@H]1C(=O)O[C@H](c3ccccc3)[C@H](c3ccccc3)N1[C@@H]2c1ccc(OCCO)cc1` too.
-1.38

Now look at this one.
// query z-score value for entry CC1CC/C=C\[C@H]2OC34C=CCN(c5ccc(Cl)cc5)C(=O)[C@H]3N(C(C)CO)C(=O)[C@]4(C)C2C(=O)O1 (stereo partly drawn)
0.0276

---

# Assay: forskolin-driven CRE-LacZ activity in PC12 – cell-based, CRE-LacZ reporter, forskolin-stimulated, primary screen (AID 1146);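 further: PC12 cells with 6xCRE LacZ reporter stimulated by forskolin 10 µM; beta-galactosidase reporter signal reflecting CREB driven transcription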
# Run Conditions: luminescence, 4.5 h, higher = more signal, called active from +8 up or from −8 down
Measured Attribute: z-score
Answers are plain numbers.

Solved cases below.
// lookup z-score for CS(=O)(=O)CCOC(=O)C1=CC(c2ccc(CO)cc2)=CC(C2CC2)N(Cc2sc3ccccc3c2Cl)C=C1C(=O)OCCS(C)(=O)=O (centres undefined)
-2.66

Quick one: `CCCC[C@@H](O)C1=C(COC)C[C@H]2C(=O)N(C)C(=O)[C@H]2[C@H]1CO`
-1.18

Can you check O=C1C2C=CC(C(O)c3ccco3)N(Nc3ccccc3F)C2C(=O)N1c1ccccc1 (centres undefined) next?
0.942

Turning now to a further record.
// returns reported z-score for input [N-]=[N+]=NCc1ccccc1[C@H]1OC(c2ccc(OCCCO)cc2)=N[C@@]1(Cc1ccccc1N=[N+]=[N-])C(=O)NCC(O)CO (some centres undefined)
-1.22

---

# Assay: probe aLefty2 binding to arrayed compounds – biochemical, biotinylated probe, 635/667 nm fluorescence, primary screen (AID 1094);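 further: score merges spot fluorescence near 667 nm with spot signal-to-noise ratio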
# Run Conditions: small-molecule microarray, higher = more signal
Measured Attribute: composite z-score
Numbers only.

Entry under review: COC(=O)C1=CC(CCCO)=CC(c2cccs2)N(C)C=C1C(=O)OC (configuration not stated) . Reported composite z-score?
0.0099

What about `C=C(/C(=C/C[C@H](OC(=O)c1ccncc1)c1ccc(CO)o1)c1cnc2ccccc2c1)C(C)C` ?
0.0249

Repeat for the following compound: `CCCNC(=O)[C@@]1(C)c2ccccc2C(=O)N(c2ccc(C)cn2)[C@H]1c1ccc(CO)cc1`
-0.0352

Now consider `C=C(/C(=C/C[C@H](OC(C)=O)c1ccc(CO)o1)c1cnc2ccccc2c1)C(C)C` .
-0.044

For every item below, please supply its composite z-score.
1. CCCN1C(=O)[C@@]2(Cc3ccccc31)N=C(c1ccc(OCCCO)cc1)O[C@H]2c1ccccc1
2. CC(C)c1ccc(NN2C(C(O)c3ccc(F)cc3)C=CC3C(=O)N(c4ccccc4)C(=O)C32)cc1 (configuration not stated)
3. O=C1C2C=CC(C(O)c3cccc(O)c3)N(Nc3ccc([N+](=O)[O-])cc3)C2C(=O)N1c1ccccc1 (configuration not stated)
4. COc1ccc(CCNC(=O)[C@@]2(Cc3ccccc3I)c3ccccc3C(=O)N(C3CCCCC3)[C@H]2c2ccc(CO)cc2)cc1

0.235
-0.0865
-0.021
-0.0176

State recorded composite z-score for all listed compounds.
1. COCCOC(=O)N1C(=O)[C@@]2(c3cc(C#CCCO)ccc31)[C@H](c1ccc(OCCO)cc1)N1[C@H](c3ccccc3)[C@H](c3ccccc3)OC(=O)[C@H]1[C@@H]2C(=O)Nc1nc2ccccc2s1
2. COCCCNC(=O)[C@@]1(Sc2ccc(C)cc2)CC(=O)N(C2Cc3ccccc3C2)[C@@H]1c1ccc(CO)cc1
3. CCCCC(O)C1C=CC2C(=O)N(C)C(=O)C2N1N(c1ccccc1)c1ccccc1 (configuration not stated)
4. CCCCCC1=C2CNC(C)(C(=O)OC)C=C2C(C)C1=O (configuration not stated)
5. CCCC=C(CCC)[C@@H](NS(=O)(=O)c1ccc(C(F)(F)F)cc1)c1ccccc1
6. CC(C)[Si]1(C(C)C)OCc2cc(-c3ccc(-c4ccc(Cl)c(Cl)c4)o3)nc(-c3ccccc3)c21
7. CCCNC(=O)[C@@]1(Sc2ccc(C)cc2)CC(=O)N(C2Cc3ccccc3C2)[C@@H]1c1ccc(CO)cc1I
8. [N-]=[N+]=NCc1ccccc1C[C@@]1(C(N)=O)N=C(c2ccc(OCCCO)cc2)O[C@@H]1c1ccccc1

0.151
-0.236
-0.0441
0.118
0.0749
-0.0803
-0.0321
0.149

State the recorded composite z-score for this entry: `C[N+](C)(C)CCCC[C@@H]1NC(=O)[C@@H]2C[C@H](C(=O)NCCCCCCN)[C@H](c3cccc(OCCO)c3)N2C1=O`
1.26

---

Give z-score for every item shown.
# Assay: compound effects on differentiated 3T3-L1 adipocyte viability – cell-based, 3T3-L1 adipocytes, calcein-AM fluorescence, 48 h, basal, profiling panel (AID 1163); further: test concentration not given here
# Run Conditions: 3T3-L1 adipocytes viability, higher = more signal
Numbers only.

Batch lookup, z-score per entry.
1. COC(=O)[C@@]1(Cc2ccc(OC)cc2)[C@H]2c3cc(C(=O)N4CCCC4)n(CCO)c3C[C@H]2CN1C(=O)c1ccccc1
2. CC(C)(C)OC(=O)COc1cccc(C(=O)CCN2CCOCC2)c1
3. O=C(NCCN1CCOCC1)[C@@H]1c2ccccc2C(=O)N(C2Cc3ccccc3C2)[C@H]1c1ccc(CO)cc1
4. CCOC(=O)C[C@H]1[C@H](OC(=O)c2ccc(C(=O)c3ccccc3)cc2)[C@@H](NC(=O)c2ccc3ccccc3n2)c2cc(OCCCO)ccc2N1C(=O)Cc1ccc(OC)cc1

[0.929, 0.477, 1.58, 0.418]

Give one value of z-score per listed molecule.
1. C=CC[C@]1(C(=O)N2CCOCC2)COC(c2ccc(OCCCO)cc2)=N1
2. CC(C)[Si](C#C[Si](C(C)C)(C(C)C)C(C)C)(O[C@H](c1ccccc1)c1cn(Cc2ccccc2)nn1)C(C)C
3. C=CCNC(=O)[C@@H]1[C@H]2C(=O)O[C@H](c3ccccc3)[C@H](c3ccccc3)N2[C@H](c2ccc(OCCO)cc2)[C@@]12C(=O)N(C(=O)OCCOC)c1ccc(C#Cc3ccc(OC)cc3)cc12
4. C=C[C@H]1C(C(=O)OCC)=CC[C@@H](c2ccccc2)N1S(=O)(=O)c1ccc(C)cc1
5. COC(=O)[C@@]1(Cc2ccccc2)[C@H]2c3cc(C(=O)N(C)C)n(Cc4ccc(C)o4)c3C[C@H]2CN1C(=O)c1ccccc1

1. 0.147
2. -0.224
3. 0.786
4. -1.05
5. 0.827

Lab note: each molecule below needs its z-score filled in.
1. Oc1ccc2cc[n+](Cc3cc4c(cc3Br)OCO4)cc2c1
2. CCOC(=O)C[C@H]1[C@H](OC(=O)c2ccc(-c3ccccc3)cc2)[C@@H](NC(=O)CC(C)C)c2cc(OCCCO)ccc2N1C(=O)c1ccc2ccccc2n1
3. Cc1ccc(S[C@]2(C(=O)NCc3ccccc3)CC(=O)N(C3CCCCC3)[C@@H]2c2ccc(CO)cc2I)cc1
4. COC(=O)[C@@]1(Cc2ccc(OC)cc2)[C@H]2c3cc(C(=O)N4CCCC4)n(CCc4c[nH]c5ccc(OC)cc45)c3C[C@H]2CN1C(=O)c1ccccc1

1: -0.35; 2: 0.556; 3: 0.183; 4: -0.791
